Data credit: patent US11084786B2

Tested on: HL-60
assayMethodText: Growth inhibition assay (MTT), HL-60
Assay type: cell-based
conditionContext: Homo sapiens, HL-60 cells, 48 hours exposure, read-out: HL-60 IC50 (μM) Mean ± S.E.
assayMetric: IC50 (µM)
Answers are plain numbers, in µM.

# annotated cases, reported IC50 shown
* O=C(NCCN1CCCC1)c1ccc(CNC2=C(Cl)C(=O)c3ccccc3C2=O)cc1 [MPT0L133] | 1.67
* CCN(CC)CCNC(=O)c1ccc(CNC2=C(Cl)C(=O)c3ccccc3C2=O)cc1 [MPT0L134] | 2.52

Please turn your attention to the following entry.
Param item: CN(C)CCNC(=O)c1ccc(CNC2=C(Cl)C(=O)c3ccccc3C2=O)cc1 [MPT0L132] ; param system: HL-60; output IC50: 2.5
